# Species on record: Rattus norvegicus
# METHOD: Binding affinity to neurotensin receptor in rat mast cells at 1 ng to 10 ug after 15 mins relative to neurotensin
# Format: cell-based
// reported Ratio for each item listed
The reply should be a number, written without any unit.

These recorded examples may help you get a feel for the data.
CC[C@H](C)[C@H](NC(=O)[C@@H](CCCCN)NC(=O)[C@@H]1CCCN1C(=O)[C@H](CCCNC(=N)N)NC(=O)[C@H](CCCNC(=N)N)NC(=O)[C@@H]1CCCN1C(=O)[C@H](CCCCN)NC(=O)[C@H](CC(N)=O)NC(=O)[C@H](CCC(=O)O)NC(=O)[C@H](Cc1ccc(O)cc1)NC(=O)[C@H](CC(C)C)NC(=O)[C@@H]1CCC(=O)N1)C(=O)N[C@@H](CC(C)C)C(=O)O :: 3.4
CC[C@@H](C)[C@H](NC(=O)[C@H](Cc1ccc(O)cc1)NC(=O)[C@@H]1CCCN1C(=O)[C@H](CCCNC(=N)N)NC(=O)[C@@H](N)CCCNC(=N)N)C(=O)N[C@@H](CC(C)C)C(=O)O :: 67

Next compound, Ratio to be filled in.
Prompt: Bench note: what Ratio did CC[C@H](C)[C@H](NC(=O)[C@H](Cc1ccc(O)cc1)NC(=O)[C@@H]1CCCN1C(=O)[C@H](CCCNC(=N)N)NC(=O)[C@H](CCCNC(=N)N)NC(=O)[C@@H]1CCCN1C(=O)[C@H](CCCCN)NC(=O)[C@H](CC(N)=O)NC(=O)[C@H](CCC(=O)O)NC(=O)[C@H](Cc1ccccc1)NC(=O)[C@H](CC(C)C)NC(=O)[C@@H]1CCC(=O)N1)C(=O)N[C@@H](CC(C)C)C(=O)O show?
Completion: 102

###

# METHOD: Retention time of the compound in 0.01 M NH4OAc buffer at pH 4.5 by HPLC analysis
# Format: physicochemical
Where a SMILES comes first, the peptide text is derived from it. Bridges are numbered along the chain shown (N, C = ends). [ ]: non-standard residue; d: D form. pGlu = O=C1CC[C@@H](C(=O)O)N1
Reported Retention_time values follow for various compounds
Report as a plain number; the unit min is understood.

Illustrative cases are given below, each with its answer.
CC[C@H](C)[C@H](NC(=O)[C@H](Cc1ccccc1)NC(=O)[C@@H]1CCCN1C(=O)[C@H](CCCN=C(N)N)NC(=O)[C@H](CCCN=C(N)N)NC(=O)[C@@H]1CCCN1C(=O)[C@H](CCCCN)NC(=O)[C@H](CC(N)=O)NC(=O)[C@H](CCC(=O)O)NC(=O)[C@H](Cc1ccc(O)cc1)NC(=O)[C@H](CC(C)C)NC(=O)[C@@H]1CCC(=O)N1)C(=O)N[C@@H](CC(C)C)C(=O)O :: 9.7
CC[C@H](C)[C@H](NC(=O)[C@@H](Cc1ccccc1)NC(=O)[C@@H]1CCCN1C(=O)[C@H](CCCN=C(N)N)NC(=O)[C@H](CCCN=C(N)N)NC(=O)[C@@H]1CCCN1C(=O)[C@H](CCCCN)NC(=O)[C@H](CC(N)=O)NC(=O)[C@H](CCC(=O)O)NC(=O)[C@H](Cc1ccc(O)cc1)NC(=O)[C@H](CC(C)C)NC(=O)[C@@H]1CCC(=O)N1)C(=O)N[C@@H](CC(C)C)C(=O)O :: 5.3
CC[C@H](C)[C@H](NC(=O)[C@@H](CC(C)C)NC(=O)[C@@H]1CCCN1C(=O)[C@H](CCCNC(=N)N)NC(=O)[C@H](CCCNC(=N)N)NC(=O)[C@@H]1CCCN1C(=O)[C@H](CCCCN)NC(=O)[C@H](CC(N)=O)NC(=O)[C@H](CCC(=O)O)NC(=O)[C@H](Cc1ccc(O)cc1)NC(=O)[C@H](CC(C)C)NC(=O)[C@@H]1CCC(=O)N1)C(=O)N[C@@H](CC(C)C)C(=O)O :: 5.2

Prompt: For the compound CC[C@H](C)[C@H](NC(=O)[C@H](Cc1ccc(O)cc1)NC(=O)[C@@H]1CCCN1C(=O)[C@H](CCCNC(=N)N)NC(=O)[C@H](CCCNC(=N)N)NC(=O)[C@@H]1CCCN1C(=O)[C@H](CCCCN)NC(=O)[C@H](CC(N)=O)NC(=O)[C@H](CCC(=O)O)NC(=O)[C@H](Cc1ccccc1)NC(=O)[C@H](CC(C)C)NC(=O)[C@@H]1CCC(=O)N1)C(=O)N[C@@H](CC(C)C)C(=O)O , what Retention_time is on record?
Completion: 4.9

Prompt: Another compound to check: CC[C@H](C)[C@@H]1NC(=O)[C@H](Cc2ccc(O)cc2)NC(=O)[C@@H]2CCCN2C(=O)[C@H](CCCNC(=N)N)NC(=O)[C@H](CCCNC(=N)N)NC(=O)[C@@H]2CCCN2C(=O)[C@H](CCCCN)NC(=O)[C@H](CC(N)=O)NC(=O)[C@H](CCC(=O)O)NC(=O)[C@H](Cc2ccc(O)cc2)NC(=O)[C@@H](NC(=O)[C@@H]2CCC(=O)N2)CSSC[C@@H](C(=O)O)NC1=O ([pGlu]CYENKPRRPYIC-OH; disulfide 2-13)
Completion: 5.3

Prompt: What about CC[C@H](C)[C@H](NC(=O)[C@@H](CCCCN)NC(=O)[C@@H]1CCCN1C(=O)[C@H](CCCNC(=N)N)NC(=O)[C@H](CCCNC(=N)N)NC(=O)[C@@H]1CCCN1C(=O)[C@H](CCCCN)NC(=O)[C@H](CC(N)=O)NC(=O)[C@H](CCC(=O)O)NC(=O)[C@H](Cc1ccc(O)cc1)NC(=O)[C@H](CC(C)C)NC(=O)[C@@H]1CCC(=O)N1)C(=O)N[C@@H](CC(C)C)C(=O)O ?
Completion: 6.4

Prompt: Also, CC[C@H](C)[C@H](NC(=O)[C@H](Cc1ccc(O)cc1)NC(=O)[C@@H]1CCCN1C(=O)[C@@H](N)CCCNC(=N)N)C(=O)N[C@@H](CC(C)C)C(=O)O please.
Completion: 10.4

Prompt: How about this compound: CC[C@H](C)[C@H](NC(=O)[C@H](Cc1ccc(O)cc1)NC(=O)[C@@H]1CCCN1C(=O)[C@H](CCCNC(=N)N)NC(=O)[C@@H](N)CCCNC(=N)N)C(=O)N[C@@H](CC(C)C)C(=O)O
Completion: 8.2

###

# Species: Rattus norvegicus
# METHOD: Binding affinity to neurotensin receptor in rat mast cells at 1 ng to 10 ug after 15 mins relative to neurotensin
# Type: cell-based
Where a SMILES comes first, the peptide text is derived from it. Bridges are numbered along the chain shown (N, C = ends). [ ]: non-standard residue; d: D form. pGlu = O=C1CC[C@@H](C(=O)O)N1
Items are presented alongside their recorded Ratio.
Answer with the value's number alone.

# annotated cases, reported Ratio shown
CC[C@H](C)[C@H](NC(=O)[C@H](Cc1ccc(O)cc1)NC(=O)[C@@H]1CCCN1C(=O)[C@@H](N)CCCN=C(N)N)C(=O)N[C@@H](CC(C)C)C(=O)O :: 76
CC[C@H](C)[C@H](NC(=O)[C@H](Cc1ccccc1)NC(=O)[C@@H]1CCCN1C(=O)[C@H](CCCN=C(N)N)NC(=O)[C@H](CCCN=C(N)N)NC(=O)[C@@H]1CCCN1C(=O)[C@H](CCCCN)NC(=O)[C@H](CC(N)=O)NC(=O)[C@H](CCC(=O)O)NC(=O)[C@H](Cc1ccc(O)cc1)NC(=O)[C@H](CC(C)C)NC(=O)[C@@H]1CCC(=O)N1)C(=O)N[C@@H](CC(C)C)C(=O)O :: 100

Prompt: Need Ratio of CC[C@H](C)[C@H](NC(=O)[C@@H](Cc1ccccc1)NC(=O)[C@@H]1CCCN1C(=O)[C@H](CCCN=C(N)N)NC(=O)[C@H](CCCN=C(N)N)NC(=O)[C@@H]1CCCN1C(=O)[C@H](CCCCN)NC(=O)[C@H](CC(N)=O)NC(=O)[C@H](CCC(=O)O)NC(=O)[C@H](Cc1ccc(O)cc1)NC(=O)[C@H](CC(C)C)NC(=O)[C@@H]1CCC(=O)N1)C(=O)N[C@@H](CC(C)C)C(=O)O , thanks.
Completion: 0.64

Prompt: What about this compound? CC[C@H](C)[C@@H]1NC(=O)[C@H](Cc2ccc(O)cc2)NC(=O)[C@@H]2CCCN2C(=O)[C@H](CCCNC(=N)N)NC(=O)[C@H](CCCNC(=N)N)NC(=O)[C@@H]2CCCN2C(=O)[C@H](CCCCN)NC(=O)[C@H](CC(N)=O)NC(=O)[C@H](CCC(=O)O)NC(=O)[C@H](Cc2ccc(O)cc2)NC(=O)[C@@H](NC(=O)[C@@H]2CCC(=O)N2)CSSC[C@@H](C(=O)O)NC1=O ([pGlu]CYENKPRRPYIC-OH; disulfide 2-13)
Completion: 3.4

###

# key: entry, value: Ratio
# System: Rattus norvegicus
# METHOD: Induction of hypothermia in cold-exposed Sprague-Dawley rat compound administered intracisternally measured 60 mins post dose relative to neurotensin
# Assay type: functional
Where a SMILES comes first, the peptide text is derived from it. Bridges are numbered along the chain shown (N, C = ends). [ ]: non-standard residue; d: D form. pGlu = O=C1CC[C@@H](C(=O)O)N1
// print number alone

Before answering, review these 6 worked examples.
CC[C@H](C)[C@H](NC(=O)[C@H](Cc1ccccc1)NC(=O)[C@@H]1CCCN1C(=O)[C@H](CCCN=C(N)N)NC(=O)[C@H](CCCN=C(N)N)NC(=O)[C@@H]1CCCN1C(=O)[C@H](CCCCN)NC(=O)[C@H](CC(N)=O)NC(=O)[C@H](CCC(=O)O)NC(=O)[C@H](Cc1ccc(O)cc1)NC(=O)[C@H](CC(C)C)NC(=O)[C@@H]1CCC(=O)N1)C(=O)N[C@@H](CC(C)C)C(=O)O :: 100
CC[C@H](C)[C@H](NC(=O)[C@H](Cc1ccc(O)cc1)NC(=O)[C@@H]1CCCN1C(=O)[C@H](CCCNC(=N)N)NC(=O)[C@H](CCCNC(=N)N)NC(=O)[C@@H]1CCCN1C(=O)[C@H](CCCCN)NC(=O)[C@H](CC(N)=O)NC(=O)[C@H](CCC(=O)O)NC(=O)[C@H](Cc1ccccc1)NC(=O)[C@H](CC(C)C)NC(=O)[C@@H]1CCC(=O)N1)C(=O)N[C@@H](CC(C)C)C(=O)O :: 100
CC[C@H](C)[C@@H]1NC(=O)[C@H](Cc2ccc(O)cc2)NC(=O)[C@@H]2CCCN2C(=O)[C@H](CCCNC(=N)N)NC(=O)[C@H](CCCNC(=N)N)NC(=O)[C@@H]2CCCN2C(=O)[C@H](CCCCN)NC(=O)[C@H](CC(N)=O)NC(=O)[C@H](CCC(=O)O)NC(=O)[C@H](Cc2ccc(O)cc2)NC(=O)[C@@H](NC(=O)[C@@H]2CCC(=O)N2)CSSC[C@@H](C(=O)O)NC1=O ([pGlu]CYENKPRRPYIC-OH; disulfide 2-13) :: 100
CC[C@H](C)[C@H](NC(=O)[C@H](Cc1ccc(O)cc1)NC(=O)[C@@H]1CCCN1C(=O)[C@@H](N)CCCN=C(N)N)C(=O)N[C@@H](CC(C)C)C(=O)O :: 20
CC[C@H](C)[C@H](NC(=O)[C@H](Cc1ccc(O)cc1)NC(=O)[C@@H]1CCCN1C(=O)[C@H](CCCNC(=N)N)NC(=O)[C@@H](N)CCCNC(=N)N)C(=O)N[C@@H](CC(C)C)C(=O)O :: 25
CC[C@H](C)[C@H](NC(=O)[C@@H](Cc1ccccc1)NC(=O)[C@@H]1CCCN1C(=O)[C@H](CCCN=C(N)N)NC(=O)[C@H](CCCN=C(N)N)NC(=O)[C@@H]1CCCN1C(=O)[C@H](CCCCN)NC(=O)[C@H](CC(N)=O)NC(=O)[C@H](CCC(=O)O)NC(=O)[C@H](Cc1ccc(O)cc1)NC(=O)[C@H](CC(C)C)NC(=O)[C@@H]1CCC(=O)N1)C(=O)N[C@@H](CC(C)C)C(=O)O :: 1000

// switching to the query molecule
Prompt: Can you look up the measured Ratio of CC[C@H](C)[C@H](NC(=O)[C@@H](CC(C)C)NC(=O)[C@@H]1CCCN1C(=O)[C@H](CCCNC(=N)N)NC(=O)[C@H](CCCNC(=N)N)NC(=O)[C@@H]1CCCN1C(=O)[C@H](CCCCN)NC(=O)[C@H](CC(N)=O)NC(=O)[C@H](CCC(=O)O)NC(=O)[C@H](Cc1ccc(O)cc1)NC(=O)[C@H](CC(C)C)NC(=O)[C@@H]1CCC(=O)N1)C(=O)N[C@@H](CC(C)C)C(=O)O for me?
Completion: 30
